Biological target: Neuropeptide S receptor (Mus musculus)
Sequence (Q8BZP8 whole entry): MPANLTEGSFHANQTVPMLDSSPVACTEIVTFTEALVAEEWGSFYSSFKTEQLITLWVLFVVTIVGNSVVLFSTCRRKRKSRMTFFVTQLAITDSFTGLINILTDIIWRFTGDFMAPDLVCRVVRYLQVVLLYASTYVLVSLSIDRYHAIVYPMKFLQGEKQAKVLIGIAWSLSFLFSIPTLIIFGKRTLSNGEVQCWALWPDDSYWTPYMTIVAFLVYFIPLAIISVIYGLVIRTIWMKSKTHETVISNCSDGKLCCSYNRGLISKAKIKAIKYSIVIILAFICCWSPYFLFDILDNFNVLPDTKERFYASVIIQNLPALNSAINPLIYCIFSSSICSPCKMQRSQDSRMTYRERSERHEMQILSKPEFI
Experiment: Agonist activity at mouse NPSR expressed in HEK293 cells by calcium mobilization assay
Assay type: functional, cell-based
endpoint.label: EC50 (nM)
Report the figure in nM without appending any unit label.

Q. Requested read-out: EC50. Entry: H-SFRNGVGTGMKKTSFQRAKS-OH [NEUROPEPTIDE S]
A. 2.24
